# reported HD50; entries follow
- System: Mus musculus
- experiment.notes: Hypnotic dose was determined by observing loss of righting reflex for a minimum period of 30 sec in 50% of treated mice after i.v. administration.
- Format: functional
I only need the number, in µM/kg, no unit after it.

Worked cases, answers included:
| smi | uom | value.reported |
| --- | --- | --- |
| CC(=O)[C@H]1CC[C@H]2[C@@H]3CC[C@H]4C[C@H](O)[C@@H](N5CCOC(C)(C)C5)C[C@]4(C)[C@H]3CC[C@]12C | µM/kg | 17.4 |
| CC(=O)[C@H]1CC[C@H]2[C@@H]3CC[C@H]4C[C@H](O)[C@@H](N5CCOCC5)C[C@]4(C)[C@H]3C(=O)C[C@]12C | µM/kg | 34.6 |
| CC[C@@H]1CN([C@H]2C[C@@]3(C)[C@@H](CC[C@@H]4[C@@H]3CC[C@]3(C)[C@@H](C(C)=O)CC[C@@H]43)C[C@@H]2O)CCO1 | µM/kg | 11.2 |
| CC(=O)[C@H]1CC[C@H]2[C@@H]3CC[C@H]4C[C@H](O)[C@@H](N5CCOCC5)C[C@]4(C)[C@H]3CC[C@]12C | µM/kg | 22.2 |
| CC(=O)[C@H]1CC[C@H]2[C@@H]3CC[C@H]4C[C@H](O)[C@@H](N5CCSC(C)(C)C5)C[C@]4(C)[C@H]3CC[C@]12C | µM/kg | 51.9 |
| CCC[C@H]1CN([C@H]2C[C@@]3(C)[C@@H](CC[C@H]4[C@@H]5CC[C@H](C(C)=O)[C@@]5(C)CC(=O)[C@@H]43)C[C@@H]2O)CCO1 | µM/kg | 10.8 |
| CC(=O)[C@H]1CC[C@H]2[C@@H]3CC[C@H]4C[C@H](O)[C@@H](N5CCSC(C)(C)C5)C[C@]4(C)[C@H]3C(=O)C[C@]12C | µM/kg | 13.7 |
| C[C@]12C[C@H](N3CCOCC3)[C@@H](O)C[C@@H]1CC[C@@H]1[C@@H]2CC[C@]2(C)[C@@H](C(=O)CBr)CC[C@@H]12 | µM/kg | 22.8 |

HD50 for `CC1(C)CN([C@H]2C[C@@]3(C)[C@@H](CC[C@H]4[C@@H]5CC[C@H](C(=O)CO)[C@@]5(C)CC(=O)[C@@H]43)C[C@@H]2O)CCO1` is 42.3

HD50 for `CC(=O)[C@H]1CC[C@H]2[C@@H]3CC[C@H]4C[C@H](O)[C@@H](N5CC(C)(C)OC(C)(C)C5)C[C@]4(C)[C@H]3C(=O)C[C@]12C` is 8.3

HD50 for `CC(=O)OCC(=O)[C@H]1CC[C@H]2[C@@H]3CC[C@H]4C[C@H](O)[C@@H](N5CCOC(C)(C)C5)C[C@]4(C)[C@H]3C(=O)C[C@]12C` is 21.1

###

- test.target: GABA-A receptor; anion channel (Bos taurus) (UniProt P10063+P08220+P20237+P08219+P10064+P22300)
- experiment.notes: Concentration required to potentiate GABA-evoked currents in voltage-clamped bovine chromaffin cells by 300%
- Type: functional
# reported POT; entries follow
I only need the number, in nM, no unit after it.

| compound | POT, nM |
| --- | --- |
| CC1(C)CN([C@H]2C[C@@]3(C)[C@@H](CC[C@@H]4[C@@H]3CC[C@]3(C)[C@@H](C(=O)CCl)CC[C@@H]43)C[C@@H]2O)CCO1 | 380 |
| C[C@]12C[C@H](N3CCOCC3)[C@@H](O)C[C@@H]1CC[C@H]1[C@@H]3CC[C@H](C(=O)CCl)[C@@]3(C)CC(=O)[C@@H]12 | 1500 |
| CC(=O)OCC(=O)[C@H]1CC[C@H]2[C@@H]3CC[C@H]4C[C@H](O)[C@@H](N5CCOCC5)C[C@]4(C)[C@H]3CC[C@]12C | 660 |
| C[C@]12CC[C@@H](O)C[C@@H]1CC[C@@H]1[C@@H]2CC[C@]2(C)[C@@H](C(=O)CO)CC[C@@H]12 | 300 |
| CC(=O)[C@H]1CC[C@H]2[C@@H]3CC[C@H]4C[C@H](O)CC[C@]4(C)[C@H]3CC[C@]12C [BREXANOLONE] | 105 |
| CCCC(C)C1(CC)C(=O)NC(=S)NC1=O (configuration not stated) [THIOPENTAL] | 30000 |

POT for `CC1(C)CN([C@H]2C[C@@]3(C)[C@@H](CC[C@H]4[C@@H]5CC[C@H](C(=O)CCl)[C@@]5(C)CC(=O)[C@@H]43)C[C@@H]2O)CCO1` is 450

###

- System: Mus musculus
- experiment.notes: Hypnotic dose was determined by observing loss of righting reflex for a minimum period of 30 sec in 50% of treated mice after i.v. administration.
- Type: functional
# reported HD50; entries follow
I only need the number, in µM/kg, no unit after it.

| smi | test.target | HD50 / µM/kg |
| --- | --- | --- |
| CC(=O)SCC(=O)[C@H]1CC[C@H]2[C@@H]3CC[C@H]4C[C@H](O)[C@@H](N5CCOC(C)(C)C5)C[C@]4(C)[C@H]3C(=O)C[C@]12C | Mus musculus | 7.9 |

Mus musculus HD50 of `CC(=O)[C@H]1CC[C@H]2[C@@H]3CC[C@H]4C[C@H](O)[C@@H](N5C[C@@H](C)O[C@@H](C)C5)C[C@]4(C)[C@H]3CC[C@]12C` is 26

Mus musculus HD50 of `CC(=O)[C@H]1CC[C@H]2[C@@H]3CC[C@H]4C[C@H](O)[C@@H](N5CCSCC5)C[C@]4(C)[C@H]3CC[C@]12C` is 40.5

Mus musculus HD50 of `CC1(C)CN([C@H]2C[C@@]3(C)[C@@H](CC[C@H]4[C@@H]5CC[C@H](C(=O)CN=[N+]=[N-])[C@@]5(C)CC(=O)[C@@H]43)C[C@@H]2O)CCO1` is 10.7
